src = ChEMBL document CHEMBL1146135

target: RNA-directed RNA polymerase (Hepacivirus hominis, UniProt O39930); assay: Inhibitory activity against HCV 1b NS5B RNA dependent RNA polymerase; parameters: species or system Hepatitis C virus subtype 1b
Sequence (O39930 whole entry): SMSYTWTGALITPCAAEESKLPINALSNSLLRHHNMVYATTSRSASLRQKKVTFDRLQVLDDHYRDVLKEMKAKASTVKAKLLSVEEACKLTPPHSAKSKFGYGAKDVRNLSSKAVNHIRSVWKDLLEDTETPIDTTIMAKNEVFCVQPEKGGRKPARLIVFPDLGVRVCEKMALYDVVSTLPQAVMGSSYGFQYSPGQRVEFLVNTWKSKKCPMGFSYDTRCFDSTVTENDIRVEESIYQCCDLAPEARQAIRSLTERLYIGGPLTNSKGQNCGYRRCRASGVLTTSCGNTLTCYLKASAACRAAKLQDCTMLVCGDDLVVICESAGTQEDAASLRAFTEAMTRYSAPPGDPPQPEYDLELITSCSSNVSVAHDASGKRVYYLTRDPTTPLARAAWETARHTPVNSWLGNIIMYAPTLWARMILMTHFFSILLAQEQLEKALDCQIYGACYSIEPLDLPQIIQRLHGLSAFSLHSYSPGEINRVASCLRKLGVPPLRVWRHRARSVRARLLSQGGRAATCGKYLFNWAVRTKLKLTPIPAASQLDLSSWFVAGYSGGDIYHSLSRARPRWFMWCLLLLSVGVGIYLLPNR
pIC50: −log10 of the molar value.
measurement_type: pIC50

A selection of reference data follows.
- molecule: "O=C(O)c1ccc2c(c1)nc(-c1ccc(OC(c3ccccc3)c3cccnc3)cc1F)n2C1CCCCC1 (configuration not stated)"
  target_entity: "RNA-directed RNA polymerase (Hepacivirus hominis, UniProt O39930)"
  pIC50: 6.57
- molecule: "O=C(O)c1ccc2c(c1)nc(-c1ccc(OCCCCCc3ccccc3)cc1)n2C1CCCCC1"
  target_entity: "RNA-directed RNA polymerase (Hepacivirus hominis, UniProt O39930)"
  pIC50: 6.00
- molecule: "O=C(O)c1ccc2c(c1)nc(-c1ccc(OCc3cc(Cl)cc(Cl)c3)cc1)n2C1CCCC1"
  target_entity: "RNA-directed RNA polymerase (Hepacivirus hominis, UniProt O39930)"
  pIC50: 5.77
- molecule: "CC(C)(C)c1ccc(COc2ccc(-c3nc4cc(C(=O)O)ccc4n3C3CCCC3)cc2)cc1"
  target_entity: "RNA-directed RNA polymerase (Hepacivirus hominis, UniProt O39930)"
  pIC50: 5.82
- molecule: "O=C(O)c1ccc2c(c1)nc(-c1ccc(OCCCc3ccccc3)cc1)n2C1CCCCC1"
  target_entity: "RNA-directed RNA polymerase (Hepacivirus hominis, UniProt O39930)"
  pIC50: 6.10
- molecule: "O=C(O)c1ccc2c(c1)nc(-c1ccc(OCc3cccc(-c4ccccc4)c3)cc1)n2C1CCCCC1"
  target_entity: "RNA-directed RNA polymerase (Hepacivirus hominis, UniProt O39930)"
  pIC50: 6.41
- molecule: "O=C(O)c1ccc2c(c1)nc(-c1ccc(OC(c3ccc(F)cc3)c3ccc(F)cc3)cc1)n2C1CCCCC1"
  target_entity: "RNA-directed RNA polymerase (Hepacivirus hominis, UniProt O39930)"
  pIC50: 6.10
- molecule: "O=C(O)c1ccc2c(c1)nc(-c1ccc(OCc3ccc(Cl)cc3)cc1)n2C1CCCC1"
  target_entity: "RNA-directed RNA polymerase (Hepacivirus hominis, UniProt O39930)"
  pIC50: 5.92

I = O=C(O)c1ccc2c(c1)nc(-c1ccc(OCc3cccc(Cl)c3)cc1)n2C1CCCC1
II = O=C(O)c1ccc2c(c1)nc(-c1ccc(OC(c3ccccc3)c3ccccc3)cc1F)n2C1CCCCC1
Prompt: Given the two records I and II , choose the one whose pIC50 value is lower. Please reply using the label of the selected record.
Response: I

A = O=C(O)c1ccc2c(c1)nc(-c1ccc(OCc3ccccc3)cc1)n2C1CCCCCC1
B = O=C(O)c1ccc(COc2ccc(-c3nc4cc(C(=O)O)ccc4n3C3CCCC3)cc2)cc1
Prompt: Given the two records A and B , choose the one whose pIC50 value is lower. Please reply using the label of the selected record.
Response: B
(B: 5.17, A: 5.74)

1 = O=C(O)c1ccc2c(c1)nc(-c1ccc(OCc3ccc(Cl)c(Cl)c3)cc1)n2C1CCCC1
2 = O=C(O)c1ccc2c(c1)nc(-c1ccc(OC(c3ccc(F)cc3)c3ccc(F)cc3)cc1F)n2C1CCCCC1
Prompt: Given the two records 1 and 2 , choose the one whose pIC50 value is lower. Please reply using the label of the selected record.
Response: 1

1 = Cc1ccc(C(Oc2ccc(-c3nc4cc(C(=O)O)ccc4n3C3CCCCC3)cc2)c2ccc(C)cc2)cc1
2 = O=C(O)c1ccc2c(c1)nc(-c1ccc(OC(c3ccccc3)c3ccccc3)cc1)n2C1CCCCC1
Prompt: Which value of pIC50 is greater, the one for 1 or the one for 2 ? Please reply using the label of the selected record.
Response: 2
(2: 6.23, 1: 5.92)

I = Cc1ccc(COc2ccc(-c3nc4cc(C(=O)O)ccc4n3C3CCCC3)cc2)cc1
II = O=C(O)c1ccc2c(c1)nc(-c1ccc(OCC(c3ccccc3)c3ccccc3)cc1)n2C1CCCCC1
III = O=C(O)c1ccc2c(c1)nc(-c1ccc(OCc3ccncc3)cc1)n2C1CCCC1
IV = O=C(O)c1ccc2c(c1)nc(-c1ccc(OCc3ccccc3-c3ccccc3)cc1)n2C1CCCCC1
V = O=C(O)c1ccc2c(c1)nc(-c1ccc(Oc3ccccc3-c3ccccc3)cc1)n2C1CCCCC1
Prompt: Reorder the items by pIC50, least to greatest. Enter labels, ranked according to the request.
Response: III, I, II, V, IV
(III: 5.38, I: 5.80, II: 6.01, V: 6.24, IV: 6.52)

A = O=C(O)c1ccc2c(c1)nc(-c1ccc(OCc3ccc(C(F)(F)F)cc3)cc1)n2C1CCCC1
B = O=C(O)c1ccc2c(c1)nc(-c1ccc(OCc3ccccc3)cc1)n2C1CCCC1
C = O=C(O)c1ccc2c(c1)nc(-c1ccc(OC(c3ccc(Cl)cc3)c3ccc(Cl)cc3)cc1)n2C1CCCCC1
D = O=C(O)c1ccc2c(c1)nc(-c1ccc(OCCc3ccccc3-c3ccccc3)cc1)n2C1CCCCC1
Prompt: Order the records by pIC50, with each subsequent value no larger than the one before. Enter labels, ranked according to the request.
Response: D, C, A, B
(D: 6.47, C: 6.03, A: 5.74, B: 5.49)

1 = O=C(O)c1ccc2c(c1)nc(-c1ccc(OCc3ccccc3Cl)cc1)n2C1CCCC1
2 = O=C(O)c1ccc2c(c1)nc(-c1ccc(OCc3ccccc3)cc1)n2C1CCCCC1
3 = CN(C)C(=O)c1ccc(C(Oc2ccc(-c3nc4cc(C(=O)O)ccc4n3C3CCCCC3)c(F)c2)c2ccc(C(=O)N(C)C)cc2)cc1
Prompt: Reorder the items by pIC50, least to greatest. Enter labels, ranked according to the request.
Response: 1, 2, 3
(1: 5.64, 2: 5.85, 3: 6.19)

I = COc1ccc(COc2ccc(-c3nc4cc(C(=O)O)ccc4n3C3CCCC3)cc2)cc1
II = O=C(O)c1ccc2c(c1)nc(-c1ccc(OC(c3cccc(F)c3)c3cccc(F)c3)cc1)n2C1CCCCC1
III = O=C(O)c1ccc2c(c1)nc(-c1ccc(OCCOc3ccccc3)cc1)n2C1CCCCC1
Prompt: Reorder the items by pIC50, least to greatest. Enter labels, ranked according to the request.
Response: I, III, II
(I: 5.68, III: 5.92, II: 6.12)
